pKi: −log10 of the molar value.
Below, pKi values reported for Carbonic anhydrase 2 (Homo sapiens, UniProt P00918) across several publications.
MEASURE: pKi

Some entries whose results are on file:
CN1C(=O)C(=C2C(=O)Nc3c(F)cccc32)SC1=Nc1ccc(S(N)(=O)=O)cc1    6.86
CC1CCC2(CC1)N=C(N)N=C(Nc1ccc(S(N)(=O)=O)cc1)N2 (centres unmarked)    6.23
NS(=O)(=O)c1ccc(NC(=O)c2cc3occc3n2Cc2ccc(Cl)cc2)cc1    7.46
NS(=O)(=O)c1ccc2c(c1)CCN2C(=O)c1cccs1    8.30
NS(=O)(=O)c1ccc(CCNC(=O)[C@H](Cc2ccccc2)NC(=O)OCC2c3ccccc3-c3ccccc32)cc1    7.12
NS(=O)(=O)c1ccc(NC(=O)c2ccc3cc[nH]c3c2)cc1    6.08

A: NS(=O)(=O)c1ccc(C(=O)N2CC(=O)N3CCc4ccccc4C3C2)cc1 (centres unmarked)
B: CCn1c2ccc(Cl)cc2c2nnc(SCc3cn(-c4ccc(S(N)(=O)=O)cc4)nn3)nc21
C: CC(C)(C)c1ccc(C2=C/C(=C\c3ccccc3)C(=O)N2CCc2ccc(S(N)(=O)=O)cc2)cc1
D: COc1ccc(-c2c(S(=O)(=O)c3ccccc3)nnn2-c2ccc(S(N)(=O)=O)cc2)cc1
# rank_down: sort by pKi, max first Order the labels as requested and list them.
D, A, B, C

* * *

// compounds with reported Ki on Carbonic anhydrase 2 (Homo sapiens), multi-publication
MEASURE: Ki (µM)

Answered examples (6):
NS(=O)(=O)c1ccc(NC(=O)c2cc3sccc3n2Cc2ccccc2)cc1    0.0089
NS(=O)(=O)c1ccc(CCNC(=O)[C@@H](Cc2c[nH]c3ccccc23)NC(=O)OCc2ccccc2)cc1    0.0065
CC(=O)Nc1ccc(C(=O)NC(=S)Nc2ccc(C(=O)O)cc2)cc1    0.855
CCOC(=O)c1ccc(NC(=S)NC(=O)c2cccc(NC(=O)c3ccc(C)cc3)c2)cc1    0.546
COc1ccc(C(=O)N2CCc3cc(S(N)(=O)=O)ccc32)cc1    0.0093
CC(=O)Nc1cc(S(N)(=O)=O)ccc1OCc1cn(CCCCS(=O)(=O)O)nn1    0.263

A: COc1ccc(C(=O)N2CCc3cc(S(N)(=O)=O)ccc32)c(OC)c1
B: NS(=O)(=O)c1ccc(CCN2C(=O)/C(=C/c3ccc(Cl)cc3)C=C2c2ccc(Cl)cc2)cc1
C: Cc1ccc(C2=C/C(=C\c3ccc(Cl)cc3)C(=O)N2CCc2ccc(S(N)(=O)=O)cc2)cc1
D: CN(CCCCCOC(=O)c1ccc(S(N)(=O)=O)cc1)CCCOC(=O)c1c2ccccc2cc2ccccc12
Sort the 4 compounds by Ki; largest first, smallest last. API: response body holds the labels in the requested order.
B, C, D, A

* * *

System: Carbonic anhydrase 2 (Homo sapiens) | Read-out: Ki | Origin: multiple publications
MEASURE: Ki (nM)

Illustrative cases are given below, each with its answer.
C=CCn1c2ccc(Cl)cc2c2nnc(SCc3cn(-c4ccc(S(N)(=O)=O)cc4)nn3)nc21    97.1
COc1cc(C(=O)c2cn(-c3cccc(S(N)(=O)=O)c3)cc2-c2ccccc2)cc(OC)c1OC    186
NS(=O)(=O)c1ccc(CCNC(=O)NCc2cn(CCCS(=O)(=O)[O-])nn2)cc1.[Na+]    43.1
CCc1ccc(C2=C/C(=C\c3ccc(F)cc3)C(=O)N2CCc2ccc(S(N)(=O)=O)cc2)cc1    296
CC(C)[C@@H](NC(=O)OCc1ccccc1)C(=O)NCc1ccc(S(N)(=O)=O)cc1    28.4
COc1ccc(C2=NN(c3ccc(S(N)(=O)=O)cc3)C(c3ccccc3)C2)cc1 (centres unmarked)    469
O=C(C=Cc1ccccc1)c1ccc2[nH]c(=O)oc2c1    36200
NS(=O)(=O)c1ccc2c(c1)CCN2C(=O)C1CCCCC1    1.8

A: NS(=O)(=O)c1ccc(NC(=S)NC(=O)c2ccc(Br)cc2)cc1
B: NS(=O)(=O)c1cccc(NC(=O)c2ccc3[nH]ccc3c2)c1
# min-compare on Ki between A and B Return value: the label identifying the chosen record.
B
(B: 45.5 nM, A: 67 nM)
